The measurements presented in this section are drawn from patent US9034899B2.

target system: hDAT (Homo sapiens (Human), UniProt Q01959)
Sequence (Q01959 whole entry): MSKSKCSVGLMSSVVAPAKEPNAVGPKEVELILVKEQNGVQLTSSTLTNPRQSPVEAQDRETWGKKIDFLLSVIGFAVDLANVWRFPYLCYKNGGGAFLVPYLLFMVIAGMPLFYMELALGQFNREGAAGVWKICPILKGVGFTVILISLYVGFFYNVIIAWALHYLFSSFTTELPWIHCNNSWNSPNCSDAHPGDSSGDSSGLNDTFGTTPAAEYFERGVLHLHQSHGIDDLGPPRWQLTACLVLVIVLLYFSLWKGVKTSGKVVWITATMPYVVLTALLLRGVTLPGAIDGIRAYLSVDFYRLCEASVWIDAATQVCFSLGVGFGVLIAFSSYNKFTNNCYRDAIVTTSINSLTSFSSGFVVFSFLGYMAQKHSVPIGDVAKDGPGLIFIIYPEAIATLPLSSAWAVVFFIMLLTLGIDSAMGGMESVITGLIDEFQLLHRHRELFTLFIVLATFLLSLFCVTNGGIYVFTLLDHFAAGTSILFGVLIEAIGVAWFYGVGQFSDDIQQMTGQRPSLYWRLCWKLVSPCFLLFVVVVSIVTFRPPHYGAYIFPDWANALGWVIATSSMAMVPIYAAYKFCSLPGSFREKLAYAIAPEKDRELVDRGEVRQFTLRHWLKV
experiment description: DAT radioligand binding assay ([125I]RTI-55, HEK-293 membranes)
test conditions: (+)-enantiomers; read-out: DAT IC50
measured property: IC50 (nM)

{"compound": "CNc1ccc(-c2ccc3c(c2)CNCC3c2ccc(F)cc2)nn1 (single isomer, unassigned; (+))", "target system": "hDAT (Homo sapiens (Human), UniProt Q01959)", "unit spec": "nM", "val": 90.5}
{"compound": "CC1(C)NCC(c2ccc(Cl)c(Cl)c2)c2ccc(-c3cccnn3)cc21 (single isomer, unassigned)", "target system": "hDAT (Homo sapiens (Human), UniProt Q01959)", "unit spec": "nM", "val": 1.8}
{"compound": "Fc1cc2c(cc1-c1ccc(C(F)(F)F)nn1)CNCC2c1ccc(Cl)c(Cl)c1 (single isomer, unassigned; (+))", "target system": "hDAT (Homo sapiens (Human), UniProt Q01959)", "unit spec": "nM", "val": 78.3}

---

target system: UniProtKB P23975
Sequence (P23975 whole entry): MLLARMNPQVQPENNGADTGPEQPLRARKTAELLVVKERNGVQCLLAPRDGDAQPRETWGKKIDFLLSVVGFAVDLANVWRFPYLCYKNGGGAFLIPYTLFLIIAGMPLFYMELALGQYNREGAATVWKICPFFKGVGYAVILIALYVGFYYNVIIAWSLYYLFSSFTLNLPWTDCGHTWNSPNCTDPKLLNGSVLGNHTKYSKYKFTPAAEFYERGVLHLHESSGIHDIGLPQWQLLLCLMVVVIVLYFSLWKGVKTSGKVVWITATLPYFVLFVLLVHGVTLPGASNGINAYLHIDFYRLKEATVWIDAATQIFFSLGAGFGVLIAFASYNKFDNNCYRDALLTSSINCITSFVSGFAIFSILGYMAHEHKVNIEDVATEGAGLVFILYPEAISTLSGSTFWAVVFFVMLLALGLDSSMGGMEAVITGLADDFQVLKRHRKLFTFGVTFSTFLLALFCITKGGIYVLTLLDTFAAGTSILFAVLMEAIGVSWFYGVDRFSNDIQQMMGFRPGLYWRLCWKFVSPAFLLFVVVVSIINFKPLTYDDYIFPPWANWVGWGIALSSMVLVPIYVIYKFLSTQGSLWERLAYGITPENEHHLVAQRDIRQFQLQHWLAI
pIC50: −log10 of the molar value.

{"compound": "CC1(C)NCC(c2ccc(Cl)cc2)c2ccc(-c3ccc(C(F)(F)F)nn3)cc21 (single isomer, unassigned) [Example 35]", "pIC50": 5.99}
{"compound": "FC(F)(F)c1ccc(-c2ccc3c(c2)NCCC3c2ccc(Cl)cc2)nn1 (single isomer, unassigned; (+)) [Example 4]", "pIC50": 7.33}
{"compound": "CC1(C)NCC(c2ccc(Cl)c(Cl)c2)c2ccc(-c3ccc4ncnn4c3)cc21 (stereo not drawn) [Example 40]", "pIC50": 7.29}
{"compound": "CS(=O)(=O)c1cccc(-c2cc3c(cc2F)C(c2ccc(Cl)c(Cl)c2)CNC3)c1 (stereo not drawn) [Example 23]", "pIC50": 6.55}
{"compound": "FC(F)Oc1ccc(-c2ccc3c(c2)CNCC3c2ccc(Cl)c(Cl)c2)nn1 (stereo not drawn) [Example 12]", "pIC50": 7.73}
{"compound": "O=c1ccc(-c2cc3c(cc2F)C(c2ccc(Cl)c(Cl)c2)CNC3)n[nH]1 (stereo not drawn) [Example 22]", "pIC50": 7.20}
{"compound": "Fc1cc2c(cc1-c1ccc(OC(F)F)nn1)CNCC2c1ccc(Cl)c(Cl)c1 (single isomer, unassigned; (+)) [Example 31]", "pIC50": 8.01}
{"compound": "O=c1ccccn1-c1ccc2c(c1)CNCC2c1ccc(Cl)c(Cl)c1 (stereo not drawn) [Example 17]", "pIC50": 6.38}
{"compound": "Nc1ccc(-c2ccc3c(c2)CNCC3c2ccc(Cl)cc2)nn1 (single isomer, unassigned; (+)) [Example 5]", "pIC50": 7.20}

---

target system: UniProtKB P31645
Sequence (P31645 whole entry): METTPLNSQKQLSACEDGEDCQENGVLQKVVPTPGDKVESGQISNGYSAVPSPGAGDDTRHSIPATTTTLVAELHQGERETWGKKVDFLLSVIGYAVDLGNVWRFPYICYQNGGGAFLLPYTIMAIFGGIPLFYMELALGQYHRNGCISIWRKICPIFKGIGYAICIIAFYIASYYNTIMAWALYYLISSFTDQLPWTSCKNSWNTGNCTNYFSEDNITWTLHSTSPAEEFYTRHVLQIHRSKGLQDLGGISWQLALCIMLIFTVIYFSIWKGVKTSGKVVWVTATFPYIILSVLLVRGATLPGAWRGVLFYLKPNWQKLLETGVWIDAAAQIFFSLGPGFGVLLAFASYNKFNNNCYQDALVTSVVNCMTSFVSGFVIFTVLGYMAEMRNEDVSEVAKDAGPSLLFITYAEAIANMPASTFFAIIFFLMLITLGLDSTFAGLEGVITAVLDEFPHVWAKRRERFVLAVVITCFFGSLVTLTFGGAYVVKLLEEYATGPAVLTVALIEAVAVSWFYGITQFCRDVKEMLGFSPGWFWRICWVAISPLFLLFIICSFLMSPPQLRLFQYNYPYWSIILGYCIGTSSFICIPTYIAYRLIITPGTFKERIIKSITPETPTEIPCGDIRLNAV
experiment description: SERT radioligand binding assay ([125I]RTI-55, HEK-293 membranes)
test conditions: (+)-enantiomers; read-out: SERT IC50
Decide using IC50 alone. Strictly below 20 nM: class 1. Equal to or above 20 nM: class 0.

{"compound": "Nc1ccc(-c2ccc3c(c2)CNCC3c2ccc(Cl)cc2)nn1 (single isomer, unassigned; (+)) [Example 5]", "assigned label": "class 1"}
{"compound": "N#Cc1cccc(-c2ccc3c(c2)CNCC3c2ccc(Cl)c(Cl)c2)c1 (stereo not drawn) [Example 15]", "assigned label": "class 1"}
{"compound": "O=c1ccc(-c2cc3c(cc2F)C(c2ccc(Cl)c(Cl)c2)CNC3)n[nH]1 (stereo not drawn) [Example 22]", "assigned label": "class 0"}
{"compound": "Clc1ccc(C2CNCc3cc(-c4cccnn4)ccc32)cc1Cl (stereo not drawn) [Example 33]", "assigned label": "class 1"}
{"compound": "CNc1ccc(-c2ccc3c(c2)CNCC3c2ccc(F)cc2)nn1 (single isomer, unassigned; (+)) [Example 3]", "assigned label": "class 0"}
{"compound": "CC1(C)NCC(c2ccc(Cl)c(Cl)c2)c2ccc(-c3ccc4ncnn4c3)cc21 (stereo not drawn) [Example 40]", "assigned label": "class 1"}
{"compound": "NC(=O)c1ccc(-c2cc3c(cc2F)C(c2ccc(Cl)cc2)CNC3)cc1 (stereo not drawn) [Example 30]", "assigned label": "class 0"}
{"compound": "Nc1ccc(-c2ccc3c(c2)CNCC3c2ccc(Cl)c(Cl)c2)nn1 (stereo not drawn) [Example 34]", "assigned label": "class 1"}
{"compound": "NC(=O)c1ccc(-c2cc3c(cc2F)C(c2ccc(Cl)c(Cl)c2)CNC3)cc1 (stereo not drawn) [Example 26]", "assigned label": "class 0"}
{"compound": "Cc1noc(C)c1-c1ccc2c(c1)CNCC2c1ccc(Cl)c(Cl)c1 (stereo not drawn) [Example 25]", "assigned label": "class 1"}
{"compound": "O=c1ccccn1-c1ccc2c(c1)CNCC2c1ccc(Cl)c(Cl)c1 (stereo not drawn) [Example 17]", "assigned label": "class 1"}
{"compound": "Fc1cc2c(cc1-c1ccc(OC(F)F)nn1)CNCC2c1ccc(Cl)c(Cl)c1 (single isomer, unassigned; (+)) [Example 31]", "assigned label": "class 1"}
